Would you kindly list absorbance at 450 nm for each of these binders?
- study_system: T1, LILRA4-His (SinoBiological, 16058-H08H) (human, UniProt P59901 24-446)
- T1 construct: Bought protein. 'Human' stands at the head of the list of coated proteins; not shown: His tag
- T1 sequence (P59901 24-446 limits assumed): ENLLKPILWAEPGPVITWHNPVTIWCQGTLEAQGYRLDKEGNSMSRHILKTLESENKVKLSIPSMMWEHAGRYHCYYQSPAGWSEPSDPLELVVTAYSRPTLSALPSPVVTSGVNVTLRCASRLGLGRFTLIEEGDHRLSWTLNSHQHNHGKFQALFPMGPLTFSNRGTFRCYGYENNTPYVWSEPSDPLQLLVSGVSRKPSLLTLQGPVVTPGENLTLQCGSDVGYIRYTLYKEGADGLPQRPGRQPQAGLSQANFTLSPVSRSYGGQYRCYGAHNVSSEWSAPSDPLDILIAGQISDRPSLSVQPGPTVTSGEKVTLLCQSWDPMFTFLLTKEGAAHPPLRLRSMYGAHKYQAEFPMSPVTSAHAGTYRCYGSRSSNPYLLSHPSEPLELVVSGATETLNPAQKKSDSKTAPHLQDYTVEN
- assay_notes: ELISA, coated protein 1 µg/mL, antibody 10 µg/mL
Please state the number and follow it with the unit.

I am curious: what absorbance at 450 nm value has been reported for humanized antibody huP2-C6 (antibody, human IgG1, kappa, L234A L235A, V domains shown, Full chains; also called P2-C6H7L1) VH: EVQLVQSGAEVKKPGASVKVSCKASGYTFTDYYIHWVRQAPGQGLEWMGYIYPDTGYSGYNQKFKGRVTMTVDKSTSTAYMELRSLRSDDTAVYYCTRRGDYSGVHFDYWGQGTTVTVSS VL: DIVLTQSPDSLAVSLGERATINCRASESVNNYGVGFLHWYQQKPGQPPKLLIYRASTLESGIPDRFSGSGSGTDFTLTISSLQAEDVAVYYCQHSYKDPPWTFGGGTKVEIKR ?
0.0605 absorbance at 450 nm

I am curious: what absorbance at 450 nm value has been reported for humanized antibody huP2-G9 (antibody, human IgG1, kappa, L234A L235A, V domains shown, Full chains; also called P2-G9H1L2) VH: EVQLQESGPGLVKPSQTLSLTCTVSGSSITSGYYWNWIRQHPGKGLEWIGYLSYDGSNNYNPSLKNLVTISRDTSKNQFSLKLSSVTAADTAVYYCAREGAHYSGTLSWFAYWGQGTLVTVSS VL: DIQMTQSPSSLSASVGDRVTITCRASENIYSNLAWYQQKPGKSPKLLVYAATNLADGVPSRFSGSGSGTDYTLTISSLQPEDFATYYCQHFWDTPYTFGGGTKVEIKR ?
0.0674 absorbance at 450 nm

I am curious: what absorbance at 450 nm value has been reported for humanized antibody huP2-E8 (antibody, human IgG4 S228P, kappa, F234A L235A, V domains shown, Full chains; also called P2-E8H4L1) VH: EVQLVESGGGLVKPGGSLRLSCAASGFTFSDYGIHWVRQAPGKGLEWVAYISSGSSIHNYADTVKGRFTISRDNAKNSLYLQMNSLRAEDTAVYYCARGPNYYGSSYLLVYWGQGTLVTVSS VL: DIQMTQSPSSLSASVGDRVTITCKASQDVNIAVAWYQQKPGKAPKLLIYSASYRYTGVPSRFSGSGSGTDFTFTISSLQPEDIATYYCQQHYNIPWTFGGGTKVEIKR ?
0.0504 absorbance at 450 nm

I am curious: what absorbance at 450 nm value has been reported for fully human-derived antibody P2m (antibody, human IgG1, kappa, L234A L235A, V domains shown, Full chains) VH: QVQLVQSGAEVKKPGSSVKVSCKASGYTFTSYDISWVRQAPGQGLEWMGGIIPIFGTANYAQKFQGRVTITADESTSTAYMELSSLRSEDTAVYYCTAGIFLATAYWGQGTLVTVSS VL: DIQMTQSPSSMSASVGDRVTISCQASQDIQNYLNWYQQRPGQAPKLLIYDASTLETGVPSRFSGSGSGTYFTLTISSLQPEDVATYYCQQYENVPITFGQGTRLEIKR ?
0.0543 absorbance at 450 nm

I am curious: what absorbance at 450 nm value has been reported for humanized antibody huP2-E3 (antibody, human IgG4 S228P, kappa, F234A L235A, V domains shown, Full chains; The constant region is hIgG1(LALA) or hIgG4(LALA) with a kappa CL; also called P2-E3H6L2) VH: EVQLVQSGAEVKKPGASVKVSCKASGYTFTDYYMNWVKQAPGQRLEWMGDINPNSGGTSYNQKFKGRVTITVDKSGSTAYMELSSLRSEDTAVYYCARGGVTTVVATYWYFDVWGQGTTVTVSS VL: DIQMTQSPSSLSASVGDRVTITCRASENIYSNLAWYQQKPGKSPKLLVYAATNVADGVPSRFSGSGSGTDYTLTISSLQPEDFATYYCQQFWDTPFTFGQGTKLEIKR ?
0.0605 absorbance at 450 nm
